Every entry's value here was drawn from patent US20250101039A1.

# System: S. aureus
# assay.text: MIC by broth microdilution, S. aureus
# Assay type: cell-based, Staphylococcus aureus
# condition.context: cation adjusted Mueller Hinton broth, 35° C. 20 hours
Item-by-item account of MIC S. aureus
Give just the numeric value; µg/mL need not be written.

Study these solved cases before continuing.
>>> assay_value("CO[C@H]1/C=C/O[C@@]2(C)Oc3c(C)c(O)c4c(c3C2=O)C2=NC3(CC5CCC(C3)N5)NC2=C(NC(=O)/C(C)=C\\C=C\\[C@H](C)[C@H](O)[C@@H](C)[C@@H](O)[C@@H](C)[C@H](OC(C)=O)[C@@H]1C)C4=O (single isomer, unassigned) [Compound 12B]")
0.016
>>> assay_value("COC1C=COC2(C)Oc3c(C)c(O)c4c(c3C2=O)C2=NC3(NC2=C(NC(=O)C(C)=CC=CC(C)C(O)C(C)C(O)C(C)C(OC(C)=O)C1C)C4=O)C1CCC3CN(C(C)(C)C)C1 (mixture of isomers)")
0.008
>>> assay_value("CO[C@H]1/C=C/O[C@@]2(C)Oc3c(C)c(O)c4c(c3C2=O)C2=NC3(CCCNCC3)NC2=C(NC(=O)/C(C)=C\\C=C\\[C@H](C)[C@H](O)[C@@H](C)[C@@H](O)[C@@H](C)[C@H](OC(C)=O)[C@@H]1C)C4=O (single isomer, unassigned) [Compound 6A]")
0.016

Task: S. aureus / MIC S. aureus / CO[C@H]1/C=C/O[C@@]2(C)Oc3c(C)c(O)c4c(c3C2=O)C2=NC3(NC2=C(NC(=O)/C(C)=C\C=C\[C@H](C)[C@H](O)[C@@H](C)[C@@H](O)[C@@H](C)[C@H](OC(C)=O)[C@@H]1C)C4=O)C1CN2CC3CN(C1)C2 (stereo partly shown) : value?
Result: 0.004
